The reported measurements were obtained from ChEMBL document CHEMBL2346624.

# experiment-notes: Metabolic stability in human liver microsomes
# Format: ADME, Microsome
# condition-description: read-out: Stability
quantity-measured: CLhep predicted (mL/min/kg)

1. CC(C)NC(=O)c1c[nH]c2ncc(-c3nn(C)c4c3CC(C)(C)CC4)nc12	19
2. CC(C)(C)NC(=O)c1c[nH]c2ncc(-c3nn(CCC(O)CO)c4cc(F)ccc34)nc12 (configuration not stated)	4
3. CC(C)(C)NC(=O)c1c[nH]c2ncc(-c3nn(CCCS(C)(=O)=O)c4cc(F)ccc34)nc12	8
4. CC(C)(C)NC(=O)c1c[nH]c2ncc(-c3nn(CCC(O)CO)c4ccc(OC(F)F)cc34)nc12 (configuration not stated)	8
5. COc1cc(Nc2ncc(F)c(Nc3ccc4c(n3)N(COP(=O)(O)O)C(=O)C(C)(C)O4)n2)cc(OC)c1OC	18
6. CN(C)CCCn1nc(-c2cnc3[nH]cc(C(=O)NC(C)(C)C)c3n2)c2cc(OC(F)F)ccc21	9
7. Cn1nc(-c2cnc3[nH]cc(C(=O)NC(C)(C)C)c3n2)c2cc(OC(F)F)ccc21	18
